# study target: Epidermal Growth Factor Receptor Kinase (His-tagged cytoplasmic domain of EGFR) (Homo sapiens)
# Construct: EGFR cDNA encoding amino acids 645-1186 preceded by Met-Ala-(His)6; made in house; host or cells: Sf9 insect cells, baculovirus vHcEGFR52
# Sequence (P00533 669-1210): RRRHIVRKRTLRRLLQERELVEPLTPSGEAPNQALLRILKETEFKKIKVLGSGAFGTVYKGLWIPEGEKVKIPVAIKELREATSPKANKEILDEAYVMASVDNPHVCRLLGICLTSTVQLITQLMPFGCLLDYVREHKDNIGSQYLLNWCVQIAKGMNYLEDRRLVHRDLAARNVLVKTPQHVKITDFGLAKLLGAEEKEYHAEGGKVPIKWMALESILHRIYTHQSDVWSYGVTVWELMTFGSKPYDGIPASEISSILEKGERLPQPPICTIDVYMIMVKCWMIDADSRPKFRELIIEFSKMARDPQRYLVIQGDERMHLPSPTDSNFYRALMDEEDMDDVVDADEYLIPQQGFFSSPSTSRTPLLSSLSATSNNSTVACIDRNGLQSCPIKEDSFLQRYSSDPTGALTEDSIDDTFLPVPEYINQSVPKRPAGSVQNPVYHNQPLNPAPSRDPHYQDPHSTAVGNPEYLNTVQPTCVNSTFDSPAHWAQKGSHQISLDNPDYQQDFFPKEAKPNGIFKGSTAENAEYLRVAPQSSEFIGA
# protocol notes: Inhibition of Epidermal Growth Factor Receptor Kinase (EGF-R) using recombinant enzyme
# Type: biochemical
# protocol conditions: average of number of tests, RR-SRC peptide
value type: IC50 (nM)

[A] CCN(CC)CC=CC(=O)Nc1ccc2ncc(C#N)c(Nc3cccc(Br)c3)c2c1
[B] CN(C)CC=CC(=O)Nc1ccc2ncc(C#N)c(Nc3cccc(Br)c3)c2c1
Request: Pick one: A or B . Which has the bigger IC50 number? # reply format: chosen label
Result: A
